pIC50 values by entry
# Test system: HL60 cells, CD33-target expressing
# Protocol: In vitro cell assay, cell viability by MTS, HL60
# Format: cell-based
# Recorded Conditions: Homo sapiens, HL-60, 96 h, read-out: Average IC50, HL-60
Would you please state pIC50, meaning minus log10 of the concentration in mol/L, as a bare number?

Recorded pIC50, per entry:
CCN[C@H]1CO[C@@H](O[C@H]2[C@H](O[C@H]3C#C/C=C\C#C[C@]4(O)CC(=O)C(NC(=O)OC)=C3/C4=C\CSSC(C)(C)CCN)O[C@H](C)[C@@H](NO[C@H]3C[C@H](O)[C@H](SC(=O)c4c(C)c(I)c(O[C@@H]5O[C@@H](C)[C@H](O)[C@@H](OC)[C@H]5O)c(OC)c4OC)[C@@H](C)O3)[C@@H]2O)C[C@@H]1OC = 10.09
CCN[C@H]1CO[C@@H](O[C@H]2[C@H](O[C@H]3C#C/C=C\C#C[C@]4(O)CC(=O)C(NC(=O)OC)=C3/C4=C\CSSC(C)(C)C(=O)O)O[C@H](C)[C@@H](NO[C@H]3C[C@H](O)[C@H](SC(=O)c4c(C)c(I)c(O[C@@H]5O[C@@H](C)[C@H](O)[C@@H](OC)[C@H]5O)c(OC)c4OC)[C@@H](C)O3)[C@@H]2O)C[C@@H]1OC = 10.40
CCN[C@H]1CO[C@@H](O[C@H]2[C@H](O[C@H]3C#C/C=C\C#C[C@]4(O)CC(=O)C(NC(=O)OC)=C3/C4=C\CSSC(C)(C)CC(=O)NN)O[C@H](C)[C@@H](NO[C@H]3C[C@H](O)[C@H](SC(=O)c4c(C)c(I)c(O[C@@H]5O[C@@H](C)[C@H](O)[C@@H](OC)[C@H]5O)c(OC)c4OC)[C@@H](C)O3)[C@@H]2O)C[C@@H]1OC = 9.91
CCN[C@H]1CO[C@@H](O[C@H]2[C@H](O[C@H]3C#C/C=C\C#C[C@]4(O)CC(=O)C(NC(=O)OC)=C3/C4=C\CSSC(C)(C)CCNC(=O)[C@H](CCCNC(N)=O)NC(=O)[C@@H](NC(C)=O)C(C)C)O[C@H](C)[C@@H](NO[C@H]3C[C@H](O)[C@H](SC(=O)c4c(C)c(I)c(O[C@@H]5O[C@@H](C)[C@H](O)[C@@H](OC)[C@H]5O)c(OC)c4OC)[C@@H](C)O3)[C@@H]2O)C[C@@H]1OC = 8.65
CCN[C@H]1CO[C@@H](O[C@H]2[C@H](O[C@H]3C#C/C=C\C#C[C@]4(O)CC(=O)C(NC(=O)OC)=C3/C4=C\CSSC(C)(C)CC(N)=O)O[C@H](C)[C@@H](NO[C@H]3C[C@H](O)[C@H](SC(=O)c4c(C)c(I)c(O[C@@H]5O[C@@H](C)[C@H](O)[C@@H](OC)[C@H]5O)c(OC)c4OC)[C@@H](C)O3)[C@@H]2O)C[C@@H]1OC = 10.31

Now turn to the next molecule.
Exam item: Give the reported pIC50 for this molecule. CCN[C@H]1CO[C@@H](O[C@H]2[C@H](O[C@H]3C#C/C=C\C#C[C@]4(O)CC(=O)C(NC(=O)OC)=C3/C4=C\CSSC(C)(C)CC(=O)O)O[C@H](C)[C@@H](NO[C@H]3C[C@H](O)[C@H](SC(=O)c4c(C)c(I)c(O[C@@H]5O[C@@H](C)[C@H](O)[C@@H](OC)[C@H]5O)c(OC)c4OC)[C@@H](C)O3)[C@@H]2O)C[C@@H]1OC
Marked response: 11.52
